# Test system: SR leukemia
# test: NCI tumour cell line growth inhibition, 48 h
property: TGI

[[record]]
smilesnotation = "COc1cc(NC(=O)c2ccccc2Nc2ccnc(C(F)(F)F)c2)cc(OC)c1OC"
result = "> 100 µM"

[[record]]
smilesnotation = "COc1cc([N+](=O)[O-])ccc1NC(=O)c1cccc([N+](=O)[O-])c1O"
result = "> 100 µM"


GET /values?readout=TGI&item= `O=C1/C(=C/c2ccccc2[N+](=O)[O-])COc2ccc(O)c(O)c21`
> 100 µM

GET /values?readout=TGI&item= `Nc1c(Br)cc(-c2nc3ccccc3s2)cc1Br`
> 100 µM

GET /values?readout=TGI&item= `O=C1NC(=N[C@H](CO)c2ccccc2)S/C1=C\c1ccc2ncccc2c1`
4.85 µM

GET /values?readout=TGI&item= `Cc1ccc2nc3c(C)cc(=O)cc-3sc2c1`
46.7 µM

* * *

# Tested on: OVCAR-4 ovarian
# test: NCI tumour cell line growth inhibition, 48 h
property: TGI

Here is how some compounds turned out for TGI.
[[record]]
compound = "COCCOC1=C(Cl)C(=O)c2c(O)ccc(O)c2C1=O"
property = "TGI"
result = "4.34 µM"

[[record]]
compound = "COC1=CC(=O)C2C(C1=O)C(c1ccc(Cl)cc1)[C@@H]2C (stereo partly specified)"
property = "TGI"
result = "> 100 µM"

[[record]]
compound = "COc1ccc(-c2nc3sccn3c2-c2ccnc(NCCCNS(=O)(=O)c3ccc(F)cc3)n2)cc1"
property = "TGI"
result = "8.4 µM"

[[record]]
compound = "Cc1c(O)c(Br)c(C)c(O)c1Br (tested in a mixture with another compound)"
property = "TGI"
result = "3.04 µM"

[[record]]
compound = "CNN1C(=O)c2c(C)c(C)c(C#N)c(N)c2C1=O"
property = "TGI"
result = "> 100 µM"

[[record]]
compound = "ClCCCCOC1CCCCO1 (stereo unspecified)"
property = "TGI"
result = "> 100 µM"

[[record]]
compound = "COc1cc2c(cc1O)C1CC(CC3CCCCN31)OC(=O)/C=C\\c1ccc(O)c-2c1 (stereo unspecified)"
property = "TGI"
result = "> 100 µM"

[[record]]
compound = "CNC(C)Cc1ccccc1OC (stereo unspecified)"
property = "TGI"
result = "> 100 µM"


Any idea what TGI came out for `c1cc2c(c(NC3=NCCN3)c1)CCCC2` on OVCAR-4 ovarian?
> 100 µM

Any idea what TGI came out for COc1c(C)c(O)c2c(c1C)OC(c1ccccc1)CC2=O (stereo unspecified) on OVCAR-4 ovarian?
> 100 µM

Any idea what TGI came out for `CNc1ncc2cc(-c3cc(NC(=O)NCCC(C)(C)C)c(F)cc3C)c(C)nc2n1` on OVCAR-4 ovarian?
> 100 µM

* * *

Measured TGI of individual entries
# Test system: T-47D breast
# test: NCI tumour cell line growth inhibition, 48 h
Give the value in µM but do not write µM after it.

Here is how some compounds turned out for TGI.
[[record]]
smilesnotation = "COc1cc(NC(=O)c2ccccc2Nc2ccnc(C(F)(F)F)c2)cc(OC)c1OC"
assayedsystem = "T-47D breast"
unitabbrev = "µM"
numericresult = 91.9

[[record]]
smilesnotation = "COc1ccc2c(c1)C(=O)c1c-2c(N2CCN(C(=O)CCNCCNCCO)CC2)nc2ccccc12"
assayedsystem = "T-47D breast"
unitabbrev = "µM"
numericresult = 29.8

[[record]]
smilesnotation = "Oc1ccc(-c2nc3cc(F)ccc3s2)cc1"
assayedsystem = "T-47D breast"
unitabbrev = "µM"
numericresult = 33.7


GET /values?readout=TGI&item= `CCCc1n(Cc2ccc3ccccc3n2)cc[n+]1Cc1ccc2ccccc2n1`
5.03

* * *

# Tested on: SK-MEL-5 melanoma
# test: NCI tumour cell line growth inhibition, 48 h
property: TGI

Any idea what TGI came out for O=C(NC1C(=O)NNC1c1ccccc1Cl)c1ccccc1 (stereo not given) on SK-MEL-5 melanoma?
> 100 µM

Any idea what TGI came out for `CC(=O)C(C=O)C(C)=O.CC(=O)CC(C)=O.CC(=O)CC(C)=O.[Ru]` on SK-MEL-5 melanoma?
2.1 µM

* * *

# System: ACHN renal
# test: NCI tumour cell line growth inhibition, 48 h
property: TGI

Here is how some compounds turned out for TGI.
[[record]]
compound = "NCC1(N2CCOCC2)C2CCCC21CNc1ccccc1 (stereo unspecified)"
assayedsystem = "ACHN renal"
property = "TGI"
result = "> 100 µM"

[[record]]
compound = "C[N+](C)(C)CCN[N+]1(C)CCCc2ccccc21 (stereo unspecified)"
assayedsystem = "ACHN renal"
property = "TGI"
result = "> 100 µM"

[[record]]
compound = "CN1CCc2cc3c4cc2C1Cc1ccc(cc1)Oc1cc(ccc1O)CC1c2c(cc(O)c(c2O4)O3)CCN1C (stereo unspecified)"
assayedsystem = "ACHN renal"
property = "TGI"
result = "20.7 µM"

[[record]]
compound = "COc1ccc(/C=C2\\CCc3cc(OC)c(OC)cc3C2=O)cc1"
assayedsystem = "ACHN renal"
property = "TGI"
result = "> 10 µM"

[[record]]
compound = "O=C(NC1C(=O)NNC1c1ccccc1Cl)c1ccccc1 (stereo unspecified)"
assayedsystem = "ACHN renal"
property = "TGI"
result = "> 100 µM"


Below: the item to evaluate.
GET /values?readout=TGI&item= `O=C(/C=C/c1ccc(O)cc1)c1cc(Cl)ccc1O`
> 100 µM

* * *

Measured GI50 of individual entries
# Test system: HCC-2998 colon
# test: NCI tumour cell line growth inhibition, 48 h

[[record]]
compound = "COC1=CC2CCN3Cc4cc5c(cc4C(C1O)C23)OCC5 (centres undefined)"
result = "1090 nM"

[[record]]
compound = "O=C1/C(=C/c2ccccc2[N+](=O)[O-])COc2ccc(O)c(O)c21"
result = "1560 nM"

[[record]]
compound = "CC1COCCN1CC#CCOC(=O)c1cc2ccccc2oc1=O (centres undefined)"
result = "> 100000 nM"


GET /values?readout=GI50&item= `O=C1NC(=N[C@H](CO)c2ccccc2)S/C1=C\c1ccc2ncccc2c1`
7960 nM

* * *

# Test system: COLO 205 colon
# test: NCI tumour cell line growth inhibition, 48 h
Where a SMILES comes first, the peptide text is derived from it. [ ]: non-standard residue; d: D form. The star is where a group is joined. Phe(4-NO2) = N[CH](Cc1ccc([N+](=O)[O-])cc1)C(=O)O; Boc = CC(C)(C)OC(=O)*
property: TGI

Here is how some molecules turned out for TGI.
[[record]]
molecule = "O=C(N/N=C/c1ccc(Cl)cc1)c1ccccc1Nc1ccccc1C(=O)N/N=C/c1ccc(Cl)cc1"
assayedsystem = "COLO 205 colon"
property = "TGI"
result = "> 100 µM"

[[record]]
molecule = "O=C1c2ccccc2C(=O)c2c1ccc1c2N=C(c2ccc(Br)cc2)CC(c2cccc3ccccc23)N1 (configuration not stated)"
assayedsystem = "COLO 205 colon"
property = "TGI"
result = "> 100 µM"

[[record]]
molecule = "Cc1cc2c(cc1Cl)N1C(=O)NS(=O)(=O)N=C1NS2(=O)=O"
assayedsystem = "COLO 205 colon"
property = "TGI"
result = "> 100 µM"

[[record]]
molecule = "O=C(O)c1cn(C2CC2)c2cc(N3CCN(Cc4ccc5ccccc5c4O)CC3)c(F)cc2c1=O"
assayedsystem = "COLO 205 colon"
property = "TGI"
result = "> 100 µM"

[[record]]
molecule = "NC(=O)c1cc([N+](=O)[O-])cc([N+](=O)[O-])c1"
assayedsystem = "COLO 205 colon"
property = "TGI"
result = "> 100 µM"

[[record]]
molecule = "COC(=O)CCC(NC(=O)OC(C)(C)C)C(=O)NC(Cc1ccc([N+](=O)[O-])cc1)C(=O)NC(CCC(=O)OC)C(=O)OC (configuration not stated) (Boc-Glu(OMe)-[Phe(4-NO2)]-Glu(OMe)-OMe; configuration not given here)"
assayedsystem = "COLO 205 colon"
property = "TGI"
result = "> 100 µM"

[[record]]
molecule = "CNC(C)Cc1ccccc1OC (configuration not stated)"
assayedsystem = "COLO 205 colon"
property = "TGI"
result = "> 100 µM"

[[record]]
molecule = "CNCCN(C)Cc1cn[nH]c1-c1ccc(OC2CC(OCCC3CCOCC3)C2)cc1 (configuration not stated)"
assayedsystem = "COLO 205 colon"
property = "TGI"
result = "85.7 µM"


Any idea what TGI came out for `CCCCCCSc1nc(COC(=O)NC)c(COC(=O)NC)n1C` on COLO 205 colon?
> 100 µM

Any idea what TGI came out for CC12CC(=O)C3C(CCC4=CC(=O)CCC43C)C1CC=C2CC(=O)O (configuration not stated) on COLO 205 colon?
> 100 µM

Any idea what TGI came out for `Nc1c(Br)cc(-c2nc3ccccc3s2)cc1Br` on COLO 205 colon?
> 100 µM

Ref: PubChem BioAssay (NCI)
